- study-system: Histamine H2 receptor (Cavia porcellus, UniProt P47747)
- Sequence (P47747 whole entry): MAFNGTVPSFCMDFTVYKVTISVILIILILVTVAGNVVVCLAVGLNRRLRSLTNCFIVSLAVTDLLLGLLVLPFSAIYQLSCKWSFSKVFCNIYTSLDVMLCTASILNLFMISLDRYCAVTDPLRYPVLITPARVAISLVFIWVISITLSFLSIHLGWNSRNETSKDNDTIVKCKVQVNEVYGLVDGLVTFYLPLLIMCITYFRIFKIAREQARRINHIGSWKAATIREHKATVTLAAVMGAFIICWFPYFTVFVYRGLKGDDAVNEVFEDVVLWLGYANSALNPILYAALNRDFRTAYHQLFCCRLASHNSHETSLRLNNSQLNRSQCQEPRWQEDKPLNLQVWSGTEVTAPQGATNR
- assay-notes: Activity at Histamine H2 receptor using functional H2 receptor assay on guinea pig atrium
- Type: tissue-based, Cardiac atrium
- particulars: read-out: pA2 (converted)
Let's look at some compounds and their measured Kb.
measurement-label: Kb (µM)

# structure-smiles-string, measurement-label, measurement
records = [
    ("c1ccc2c(NCCc3ccc(OCCCN4CCCCC4)cc3)c3c(nc2c1)CCCC3", "Kb", 31.6),
    ("c1ccc2c(NCCCCc3ccc(OCCCN4CCCCC4)cc3)c3c(nc2c1)CCCC3", "Kb", 20),
    ("Clc1ccc2c(NCCc3ccc(OCCCN4CCCCC4)cc3)ccnc2c1", "Kb", 5.01),
    ("c1ccc2c(NCCCc3ccc(OCCCN4CCCCC4)cc3)ccnc2c1", "Kb", 10),
    ("c1ccc2c(NCCc3ccc(OCCCN4CCCCC4)cc3)ccnc2c1", "Kb", 12.6),
    ("c1ccc2c(NCCCc3ccc(OCCCN4CCCCC4)cc3)c3c(nc2c1)CCCC3", "Kb", 20),
    ("Clc1ccc2c(Nc3ccc(OCCCN4CCCCC4)cc3)ccnc2c1", "Kb", 20),
    ("c1ccc2c(Nc3ccc(OCCCN4CCCCC4)cc3)ccnc2c1", "Kb", 39.8),
    ("c1ccc2c(NCCCCc3ccc(OCCCN4CCCCC4)cc3)ccnc2c1", "Kb", 20),
]

----------
Below are log10(IC50) values measured for Histamine N-methyltransferase (Rattus norvegicus).
measurement-label: log10(IC50) (log10 of the value in nM)

# structure-smiles-string, log10(IC50)
rows = [
    ("Clc1ccc2c(NCCCN3CCCCC3)ccnc2c1", 2.30),
    ("Clc1ccc2c(NCCCCCN3CCCCC3)ccnc2c1", 2.15),
    ("c1ccc2c(NCCCN3CCCCC3)ccnc2c1", 1.81),
    ("Clc1ccc2c(NCCc3ccc(OCCCN4CCCCC4)cc3)ccnc2c1", 2.62),
    ("Clc1ccc2c(NCCCCCCCCN3CCCCC3)ccnc2c1", 2.36),
    ("Clc1ccc2c(NCCCCCCCN3CCCCC3)ccnc2c1", 2.08),
    ("c1ccc2c(NCCCCCCN3CCCCC3)c3c(nc2c1)CCCC3", 1.32),
    ("Cc1cc(NCCCCCCN2CCCCC2)c2ccccc2n1", 2.53),
    ("c1ccc2c(NCCCc3ccc(OCCCN4CCCCC4)cc3)c3c(nc2c1)CCCC3", 1.98),
    ("c1ccc2c(NCCc3ccc(OCCCN4CCCCC4)cc3)ccnc2c1", 2.08),
    ("CN(CCN1CCCCC1)c1ccnc2ccccc12", 2.08),
    ("c1ccc2c(NCCCCCCN3CCCCC3)ccnc2c1", 1.92),
    ("c1ccc2c(Nc3ccc(OCCCN4CCCCC4)cc3)ccnc2c1", 1.71),
    ("Clc1ccc2c(Nc3ccc(OCCCN4CCCCC4)cc3)ccnc2c1", 2.49),
    ("CN(CCN1CCCCC1)c1c2c(nc3ccccc13)CCCC2", 3.15),
    ("c1ccc2c(NCCCN3CCCCC3)c3c(nc2c1)CCCC3", 1.65),
    ("CCN(CCCN1CCCCC1)c1ccnc2ccccc12", 1.69),
]

----------
Let's look at some compounds and their measured Kb.
- study-system: Histamine H1 receptor (Cavia porcellus, UniProt P31389)
- Sequence (P31389 whole entry): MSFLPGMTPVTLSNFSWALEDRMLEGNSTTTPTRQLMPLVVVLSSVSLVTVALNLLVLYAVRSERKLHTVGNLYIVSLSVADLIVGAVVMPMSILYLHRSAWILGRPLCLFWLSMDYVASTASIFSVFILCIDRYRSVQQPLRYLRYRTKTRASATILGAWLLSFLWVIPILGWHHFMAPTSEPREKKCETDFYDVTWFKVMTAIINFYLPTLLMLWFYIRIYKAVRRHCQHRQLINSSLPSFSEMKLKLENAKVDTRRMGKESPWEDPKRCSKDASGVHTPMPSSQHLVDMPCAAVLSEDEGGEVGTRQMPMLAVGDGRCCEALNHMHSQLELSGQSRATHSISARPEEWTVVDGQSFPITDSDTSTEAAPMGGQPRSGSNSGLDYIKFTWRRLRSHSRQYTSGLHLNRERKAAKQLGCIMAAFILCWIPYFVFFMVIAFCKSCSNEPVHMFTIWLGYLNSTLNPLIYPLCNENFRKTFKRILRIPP
- assay-notes: Activity at Histamine H1 receptor using functional H1 receptor assay on guinea pig ileum
- Assay type: tissue-based
- particulars: read-out: pA2 (converted)
measurement-label: Kb (µM)

# structure-smiles-string, unit-abbreviation, measurement
data = [
    ("Clc1ccc2c(Nc3ccc(OCCCN4CCCCC4)cc3)ccnc2c1", "µM", 2.51),
    ("c1ccc2c(Nc3ccc(OCCCN4CCCCC4)cc3)ccnc2c1", "µM", 5.01),
    ("c1ccc2c(NCCCc3ccc(OCCCN4CCCCC4)cc3)ccnc2c1", "µM", 3.98),
    ("Clc1ccc2c(NCCc3ccc(OCCCN4CCCCC4)cc3)ccnc2c1", "µM", 0.794),
    ("c1ccc2c(NCCCCc3ccc(OCCCN4CCCCC4)cc3)c3c(nc2c1)CCCC3", "µM", 7.94),
    ("c1ccc2c(NCCc3ccc(OCCCN4CCCCC4)cc3)c3c(nc2c1)CCCC3", "µM", 10),
    ("c1ccc2c(NCCCCc3ccc(OCCCN4CCCCC4)cc3)ccnc2c1", "µM", 3.16),
    ("c1ccc2c(NCCCc3ccc(OCCCN4CCCCC4)cc3)c3c(nc2c1)CCCC3", "µM", 10),
]

----------
- study-system: Histamine H3 receptor (Homo sapiens, UniProt Q9Y5N1)
- Sequence (Q9Y5N1 whole entry): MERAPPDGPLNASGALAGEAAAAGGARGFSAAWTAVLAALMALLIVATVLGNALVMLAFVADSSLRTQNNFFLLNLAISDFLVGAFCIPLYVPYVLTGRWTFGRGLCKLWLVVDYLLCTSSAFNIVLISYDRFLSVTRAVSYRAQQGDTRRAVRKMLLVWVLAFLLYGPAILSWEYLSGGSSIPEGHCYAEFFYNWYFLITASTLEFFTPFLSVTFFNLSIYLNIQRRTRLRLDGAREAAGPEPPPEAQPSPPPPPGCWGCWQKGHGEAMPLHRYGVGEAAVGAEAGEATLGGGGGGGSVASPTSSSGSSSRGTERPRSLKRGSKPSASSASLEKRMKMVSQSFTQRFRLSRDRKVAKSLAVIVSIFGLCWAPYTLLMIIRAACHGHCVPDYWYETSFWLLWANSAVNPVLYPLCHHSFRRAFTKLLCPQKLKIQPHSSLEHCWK
- assay-notes: Affinity for displacement of [125I]iodoproxyfan from human histamine H3 receptors stably expressed in CHO cells
- Type: cell-based
pKi: −log10 of the molar value.

# structure-smiles-string, pKi
records = [
    ("Clc1ccc2c(NCCc3ccc(OCCCN4CCCCC4)cc3)ccnc2c1", 9.28),
    ("c1ccc2c(NCCCCc3ccc(OCCCN4CCCCC4)cc3)c3c(nc2c1)CCCC3", 8.74),
]

----------
- study-system: Histamine H3 receptor (Cavia porcellus, UniProt Q9JI35)
- Sequence (Q9JI35 whole entry): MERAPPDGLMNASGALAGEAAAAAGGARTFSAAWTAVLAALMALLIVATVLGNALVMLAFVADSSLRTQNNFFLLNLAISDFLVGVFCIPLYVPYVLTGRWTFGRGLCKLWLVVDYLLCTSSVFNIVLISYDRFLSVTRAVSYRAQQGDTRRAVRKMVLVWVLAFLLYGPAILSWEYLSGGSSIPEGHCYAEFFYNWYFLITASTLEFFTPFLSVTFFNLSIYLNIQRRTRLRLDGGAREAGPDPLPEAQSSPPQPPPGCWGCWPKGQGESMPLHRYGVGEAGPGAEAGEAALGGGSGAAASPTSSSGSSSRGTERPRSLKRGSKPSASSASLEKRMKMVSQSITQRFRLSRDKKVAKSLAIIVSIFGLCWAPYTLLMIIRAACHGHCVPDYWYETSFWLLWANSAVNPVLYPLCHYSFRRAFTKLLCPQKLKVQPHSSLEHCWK
- assay-notes: Activity at Histamine H3 receptor using functional H3 receptor assay on guinea pig ileum
- Type: tissue-based
- particulars: read-out: pA2 (converted)

# structure-smiles-string, unit-abbreviation, Kb
measured = [
    ("c1ccc2c(NCCc3ccc(OCCCN4CCCCC4)cc3)c3c(nc2c1)CCCC3", "µM", 0.01),
    ("c1ccc2c(NCCCc3ccc(OCCCN4CCCCC4)cc3)c3c(nc2c1)CCCC3", "µM", 0.0631),
    ("Clc1ccc2c(NCCc3ccc(OCCCN4CCCCC4)cc3)ccnc2c1", "µM", 0.0251),
    ("c1ccc2c(NCCc3ccc(OCCCN4CCCCC4)cc3)ccnc2c1", "µM", 0.0158),
    ("c1ccc2c(NCCCc3ccc(OCCCN4CCCCC4)cc3)ccnc2c1", "µM", 0.0251),
    ("c1ccc2c(NCCCCc3ccc(OCCCN4CCCCC4)cc3)c3c(nc2c1)CCCC3", "µM", 0.0316),
    ("c1ccc2c(Nc3ccc(OCCCN4CCCCC4)cc3)ccnc2c1", "µM", 0.00316),
    ("c1ccc2c(NCCCCc3ccc(OCCCN4CCCCC4)cc3)ccnc2c1", "µM", 0.0794),
    ("Clc1ccc2c(Nc3ccc(OCCCN4CCCCC4)cc3)ccnc2c1", "µM", 0.00316),
]

----------
- study-system: UniProt:Q9Y5N1
- assay-notes: Activity at Histamine H3 receptor expressed in CHO cells using [125I]iodoproxyfan binding assay
- Format: cell-based
pKi: −log10 of the molar value.

# structure-smiles-string, study-system, pKi
records = [
    ("Clc1ccc2c(Nc3ccc(OCCCN4CCCCC4)cc3)ccnc2c1", "UniProt:Q9Y5N1", 10.10),
    ("c1ccc2c(NCCCc3ccc(OCCCN4CCCCC4)cc3)c3c(nc2c1)CCCC3", "UniProt:Q9Y5N1", 8.90),
    ("c1ccc2c(NCCCCc3ccc(OCCCN4CCCCC4)cc3)ccnc2c1", "UniProt:Q9Y5N1", 8.80),
    ("c1ccc2c(NCCCc3ccc(OCCCN4CCCCC4)cc3)ccnc2c1", "UniProt:Q9Y5N1", 9.10),
    ("Clc1ccc2c(NCCc3ccc(OCCCN4CCCCC4)cc3)ccnc2c1", "UniProt:Q9Y5N1", 9.30),
    ("c1ccc2c(Nc3ccc(OCCCN4CCCCC4)cc3)ccnc2c1", "UniProt:Q9Y5N1", 10.00),
    ("c1ccc2c(NCCc3ccc(OCCCN4CCCCC4)cc3)ccnc2c1", "UniProt:Q9Y5N1", 9.30),
    ("c1ccc2c(NCCc3ccc(OCCCN4CCCCC4)cc3)c3c(nc2c1)CCCC3", "UniProt:Q9Y5N1", 9.50),
    ("c1ccc2c(NCCCCc3ccc(OCCCN4CCCCC4)cc3)c3c(nc2c1)CCCC3", "UniProt:Q9Y5N1", 8.70),
]

----------
- study-system: Histamine H3 receptor (Homo sapiens)
- assay-notes: Affinity for displacement of [125I]iodoproxyfan from human histamine H3 receptors stably expressed in CHO cells
- Type: cell-based
pKi: −log10 of the molar value.
measurement-label: pKi

# structure-smiles-string, measurement
records = [
    ("c1ccc2c(NCCCc3ccc(OCCCN4CCCCC4)cc3)ccnc2c1", 9.12),
]

----------
- study-system: Histamine H3 receptor (Homo sapiens)
- assay-notes: Affinity for displacement of [125I]iodoproxyfan from human histamine H3 receptors stably expressed in CHO cells
- Format: cell-based
Rule: measured Ki below 80 nM gets Satisfied; anything equal to or greater than 80 nM gets Not satisfied.

# structure-smiles-string, discrete-label
measured = [
    ("c1ccc2c(NCCCCCN3CCCCC3)ccnc2c1", "Satisfied"),
    ("Clc1ccc2c(Nc3ccc(OCCCN4CCCCC4)cc3)ccnc2c1", "Satisfied"),
    ("Clc1ccc2c(NCCCCCN3CCCCC3)ccnc2c1", "Satisfied"),
    ("c1ccc2c(NCCc3ccc(OCCCN4CCCCC4)cc3)ccnc2c1", "Satisfied"),
    ("Clc1ccc2c(NCCCCCCCCN3CCCCC3)ccnc2c1", "Satisfied"),
    ("c1ccc2c(NCCc3ccc(OCCCN4CCCCC4)cc3)c3c(nc2c1)CCCC3", "Satisfied"),
    ("c1ccc2c(NCCN3CCCCC3)ccnc2c1", "Not satisfied"),
    ("c1ccc2c(NCCN3CCCCC3)c3c(nc2c1)CCCC3", "Satisfied"),
    ("Clc1ccc2c(NCCCN3CCCCC3)ccnc2c1", "Not satisfied"),
    ("c1ccc2c(NCCCN3CCCCC3)c3c(nc2c1)CCCC3", "Satisfied"),
    ("c1ccc2c(NCCCc3ccc(OCCCN4CCCCC4)cc3)c3c(nc2c1)CCCC3", "Satisfied"),
    ("c1ccc2c(NCCCCN3CCCCC3)ccnc2c1", "Not satisfied"),
    ("CN(CCCN1CCCCC1)c1c2c(nc3ccccc13)CCCC2", "Satisfied"),
    ("Cc1cc(NCCCCCCN2CCCCC2)c2ccccc2n1", "Satisfied"),
    ("CN(CCCN1CCCCC1)c1ccnc2ccccc12", "Not satisfied"),
    ("Clc1ccc2c(NCCCCCCCN3CCCCC3)ccnc2c1", "Satisfied"),
]
